For each entry below, report its respiration area under curve value.
system: Pseudomonas aeruginosa PA14 wild type; experiment: respiration area under curve with compound as sole nitrogen source, 24 h (OmniLog AUC (arbitrary units)); higher = more respiration / better utilisation as nitrogen source, active = 2000 or more
One number for each entry.

In the examples that follow, each entry is paired with its recorded respiration area under curve.
{"Compound": "C[C@@H](O)[C@H](N)C(=O)N[C@@H](CC(=O)O)C(=O)O (plate: PM8)", "respiration area under curve": 5680}
{"Compound": "CC(C)[C@H](N)C(=O)N[C@@H](CC(=O)O)C(=O)O (plate: PM7)", "respiration area under curve": 8160}
{"Compound": "NCC(=O)N[C@H](CO)C(=O)O (plate: PM8)", "respiration area under curve": 641}

# map each compound to its respiration area under curve
1. CSCC[C@H](N)C(=O)N[C@@H](Cc1ccccc1)C(=O)O (plate: PM7)
2. C[C@H](N)C(=O)NCC(=O)O (plate: PM6)
3. CSCC[C@H](NC(=O)[C@H](C)N)C(=O)O (plate: PM8)

// result
1. 1400
2. 8070
3. 6360

====

For each entry below, report its respiration area under curve value.
test system: Pseudomonas aeruginosa PA14 wild type; assay: respiration area under curve with compound as sole nitrogen source, 24 h (OmniLog AUC (arbitrary units)); higher = more respiration / better utilisation as nitrogen source, active = 2000 or more

{"Compound": "NC(=O)CC[C@H](NC(=O)[C@@H](N)CO)C(=O)O (plate: PM8)", "Experimental target": "Pseudomonas aeruginosa PA14 wild type", "respiration area under curve": "9860 (active)"}

Provide the reported respiration area under curve of each entry below, same order.
1. CC(C)C[C@H](N)C(=O)N[C@@H](CCCN=C(N)N)C(=O)O (plate: PM6)
2. CC[C@H](C)[C@H](NC(=O)[C@@H](N)CCCN=C(N)N)C(=O)O (plate: PM6)
3. CC(C)[C@H](NC(=O)[C@@H](N)CCCN=C(N)N)C(=O)O (plate: PM6)
4. CC[C@H](C)[C@H](N)C(=O)N[C@@H](C)C(=O)O (plate: PM6)
5. C[C@H](N)C(=O)N[C@@H](CC(=O)O)C(=O)O (plate: PM8)
6. NC(N)=NCCC[C@H](NC(=O)[C@@H](N)Cc1c[nH]c2ccccc12)C(=O)O (plate: PM7)

// result
1: 10200 (active); 2: 9540 (active); 3: 8950 (active); 4: 5290 (active); 5: 10500 (active); 6: 13500 (active)

Quick request: respiration area under curve for each listed item, please.
1. C[C@H](NC(=O)CNC(=O)CN)C(=O)O (plate: PM8)
2. C[C@@H](O)[C@H](N)C(=O)N[C@@H](CCC(=O)O)C(=O)O (plate: PM7)
3. CSCC[C@H](N)C(=O)NCC(=O)O (plate: PM7)

// result
1. 11300 (active)
2. 7240 (active)
3. 5050 (active)

Give respiration area under curve for each of the items listed below.
1. C[C@H](N)C(=O)N[C@@H](Cc1ccc(O)cc1)C(=O)O (plate: PM6)
2. N[C@@H](Cc1ccccc1)C(=O)NCC(=O)NCC(=O)O (plate: PM8)
3. CC(C)[C@H](N)C(=O)NCC(=O)O (plate: PM7)
4. CSCC[C@H](N)C(=O)N[C@@H](CC(=O)O)C(=O)O (plate: PM7)
5. C[C@H](NC(=O)[C@@H](N)[C@@H](C)O)C(=O)O (plate: PM7)
6. CC(C)C(N)C(=O)NC(CO)C(=O)O (stereo unspecified) (plate: PM8)
7. C[C@H](NC(=O)[C@@H](N)CCCN=C(N)N)C(=O)O (plate: PM6)

// result
1. 6830 (active)
2. 8700 (active)
3. 9460 (active)
4. 4700 (active)
5. 10500 (active)
6. 9530 (active)
7. 9790 (active)

Report respiration area under curve for every entry below.
1. NC(N)=NCCC[C@H](NC(=O)[C@@H]1CCCN1)C(=O)O (plate: PM8)
2. CCC(C)C(N)C(=O)NC(CC(N)=O)C(=O)O (stereo unspecified) (plate: PM8)
3. C[C@H](NC(=O)CCN)C(=O)O (plate: PM8)
4. O=C(O)[C@H](Cc1ccccc1)NC(=O)[C@@H]1CCCN1 (plate: PM7)
5. N[C@@H](CC(=O)O)C(=O)NCC(=O)O (plate: PM8)
6. O=C(O)CNC(=O)[C@@H]1CCCN1 (plate: PM7)

// result
12100 (active)
9360 (active)
6440 (active)
7250 (active)
4290 (active)
10100 (active)

Record respiration area under curve for all entries; do not skip any.
1. CSCC[C@H](N)C(=O)N[C@H](C(=O)O)[C@@H](C)O (plate: PM8)
2. C[C@H](NC(=O)[C@@H]1CCCN1)C(=O)O (plate: PM7)

// result
1. 4350 (active)
2. 8890 (active)

N[C@@H](CC(=O)O)C(=O)N[C@@H](Cc1c[nH]c2ccccc12)C(=O)O (plate: PM6) has a reported respiration area under curve of 2310 (active)
